B1: TRIM14 (parent)
chain: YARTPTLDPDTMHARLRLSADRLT

Variants of: B1
Assay: protein stability index of a GFP-peptide fusion (GPS, HEK-293T) (PSI 1-6); higher = more stable;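 also: lentivirally expressed fusions sorted by FACS into six bins by GFP to DsRed ratio, PSI derived from sequencing read proportions per bin multiplied by bin number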
Settings: c terminus: a fixed tail appended
metric name: protein stability index
Please reply with the number alone, leaving off any unit.

T24I : 2.84
T24M : 2.48

What does the data say about its protein stability index? Entry: R15S 3.53

Next: Y1P 3.77

And the next one, L16N ? 2.57

L23C , same question. 2.51

Can you handle R22V next? 2.26

Where these numbers come from: the supplement of paper PMC10567573
